Assay Method Text: Pharmacokinetic studies in Beagle dogs after oral administration of SNAC-based tablets
Format: in vivo
Test Settings: male, Beagle, dog, in vivo; dogs, oral administration (tablet); read-out: T½ (converted)
Starred links: 1 amine or outer side, 2 acyl side, 3 side chain; linkers in the order of their positions; H or OH if unused. Groups on a side chain read outwards from the residue. *: point of attachment. Decanoyl(10-(4-HOOC-PhO)) = O=C(O)c1ccc(OCCCCCCCCCC(=O)*)cc1; γGlu = O=C(O)[C@H](CCC(=O)[*:2])N[*:1]; AEEA = NCCOCCOCC(=O)O
A collection of substances and their measured half-life
Just the number please, in h, no unit attached.

Ask | For H-HWEGTFTSDVSSYLEEQAAREFIEWLVRGK([AEEA-AEEA-γGlu-Decanoyl(10-(4-HOOC-PhO))])GEGGGGGASELSTAALGRLSAELHELK([AEEA-AEEA-γGlu-Decanoyl(10-(4-HOOC-PhO))])TLPRTETGSGSP-NH2 [Compound 0234] , write its half-life.
Reply | 31

Ask | For H-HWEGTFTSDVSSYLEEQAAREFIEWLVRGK([AEEA-AEEA-γGlu-Decanoyl(10-(4-HOOC-PhO))])GEGGGGGASELSTAALGRLSK([AEEA-AEEA-γGlu-Decanoyl(10-(4-HOOC-PhO))])ELHELATLPRTETGSGSP-NH2 [Compound 0233] , write its half-life.
Reply | 43

Ask | Given the substance H-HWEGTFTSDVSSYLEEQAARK([AEEA-AEEA-γGlu-Decanoyl(10-(4-HOOC-PhO))])FIEWLVRGRGEGGGGGASELSTAALGRLSK([AEEA-AEEA-γGlu-Decanoyl(10-(4-HOOC-PhO))])ELHELATLPRTETGSGSP-NH2 [Compound 0231] , write its reported half-life.
Reply | 6

Ask | Answer with the recorded half-life of H-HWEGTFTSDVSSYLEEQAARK([AEEA-AEEA-γGlu-Decanoyl(10-(4-HOOC-PhO))])FIEWLVRGRGEGGGGGASELSTAALGRLSAELHELK([AEEA-AEEA-γGlu-Decanoyl(10-(4-HOOC-PhO))])TLPRTETGSGSP-NH2 [Compound 0232] only.
Reply | 4
